- PROTOCOL DETAILS: Protein binding in anesthetized cynomolgus monkey plasma after 180 mins postinjection
- Type: ADME, organism-based, Macaca fascicularis
- MEASUREMENT CONTEXT: read-out: PPB (converted)
RESULT TYPE: fraction unbound at 3 h
Give bare numbers.

Inquiry: Entry under review: O=C(OCC[18F])C1C2CCC(CC1c1cccc(/C=C\I)c1)N2 (stereo unspecified) . Reported fraction unbound at 3 h?
Reply text: 0.915

----------
- PROTOCOL DETAILS: Drug uptake in anesthetized cynomolgus monkey brain cerebellum after 22.5 mins postinjection
- Type: ADME, organism-based, Macaca fascicularis
- MEASUREMENT CONTEXT: in vivo, 0.375 h
Threshold 5. Drug uptake below it: 1.0. Drug uptake at it or above: 0.0.

1. O=C(OCCC[18F])C1C2CCC(CC1c1cccc(/C=C\I)c1)N2 (stereo not given): 1.0

Then there is this compound:
Inquiry: Is the reported Drug uptake for O=C(OCC[18F])C1C2CCC(CC1c1cccc(/C=C\Br)c1)N2 (stereo not given) strictly below 5?
Reply text: 1.0

----------
Would you mind telling me the reported Drug uptake of each entry?
- Tested on: Thalamus
- PROTOCOL DETAILS: Drug uptake in anesthetized cynomolgus monkey brain thalamus after 18.5 mins postinjection
- Format: ADME, organism-based, Macaca fascicularis
- Design: unit not given here
- MEASUREMENT CONTEXT: in vivo

Reference set, count: 4
1) O=C(OCCC[18F])C1C2CCC(CC1c1cccc(/C=C\I)c1)N2 (stereo not given): 4.22
2) O=C(OCC[18F])C1C2CCC(CC1c1ccc(/C=C\I)cc1)N2 (stereo not given): 2.7
3) O=C(OCC[18F])C1C2CCC(CC1c1cccc(/C=C\Br)c1)N2 (stereo not given): 3.32
4) O=C(OCC[18F])C1C2CCC(CC1c1cccc(/C=C\I)c1)N2 (stereo not given): 3.7

Inquiry: What value of Drug uptake has been reported for the following molecule? O=C(OCCC[18F])C1C2CCC(CC1c1cccc(/C=C\Br)c1)N2 (stereo not given)
Reply text: 4.77

----------
- PROTOCOL DETAILS: Ratio of drug uptake in medulla to cerebellum in anesthetized cynomolgus monkey after 65 mins postinjection
- Assay type: ADME, organism-based, Macaca fascicularis
- MEASUREMENT CONTEXT: in vivo
I'd appreciate it if you could supply Ratio values for the items below.
Numbers only.

Past entries and their recorded results:
1. O=C(OCC[18F])C1C2CCC(CC1c1cccc(/C=C\I)c1)N2 (centres undefined): 1.2
2. O=C(OCCC[18F])C1C2CCC(CC1c1cccc(/C=C\I)c1)N2 (centres undefined): 1.2
3. O=C(OCC[18F])C1C2CCC(CC1c1cccc(/C=C\Br)c1)N2 (centres undefined): 1.4

Now examine the next entry.
Inquiry: Item under review: O=C(OCCC[18F])C1C2CCC(CC1c1cccc(/C=C\Br)c1)N2 (centres undefined) . Reported Ratio?
Reply text: 1.3

----------
- PROTOCOL DETAILS: Ratio of drug uptake in midbrain to cerebellum in anesthetized cynomolgus monkey after 125 mins postinjection
- Assay type: ADME, organism-based, Macaca fascicularis
- MEASUREMENT CONTEXT: in vivo
RESULT TYPE: Ratio

These recorded examples may help you get a feel for the data.
1) O=C(OCCC[18F])C1C2CCC(CC1c1cccc(/C=C\I)c1)N2 (stereo not given): 1.6
2) O=C(OCCC[18F])C1C2CCC(CC1c1cccc(/C=C\Br)c1)N2 (stereo not given): 1.8

Required: Ratio, one value per molecule below.
1. O=C(OCC[18F])C1C2CCC(CC1c1ccc(/C=C\I)cc1)N2 (stereo not given)
2. O=C(OCC[18F])C1C2CCC(CC1c1cccc(/C=C\I)c1)N2 (stereo not given)
3. O=C(OCC[18F])C1C2CCC(CC1c1cccc(/C=C\Br)c1)N2 (stereo not given)

Reply text:
[2.7, 2, 1.8]

----------
So I've got a bunch of compounds here, and I need their Drug uptake values.
- Tested on: Midbrain
- PROTOCOL DETAILS: Drug uptake in anesthetized cynomolgus monkey brain midbrain after 235 mins postinjection
- Assay type: ADME, organism-based, Macaca fascicularis
- MEASUREMENT CONTEXT: in vivo
Numbers only.

Hey, quick one: what's Drug uptake for each of these?
1. O=C(OCC[18F])C1C2CCC(CC1c1ccc(/C=C\I)cc1)N2 (stereo not given)
2. O=C(OCCC[18F])C1C2CCC(CC1c1cccc(/C=C\I)c1)N2 (stereo not given)
3. O=C(OCC[18F])C1C2CCC(CC1c1cccc(/C=C\I)c1)N2 (stereo not given)
4. O=C(OCCC[18F])C1C2CCC(CC1c1cccc(/C=C\Br)c1)N2 (stereo not given)
5. O=C(OCC[18F])C1C2CCC(CC1c1cccc(/C=C\Br)c1)N2 (stereo not given)

Reply text:
4.44
3.57
2.94
4.33
3.76

----------
- System: Pons
- PROTOCOL DETAILS: Drug uptake in anesthetized cynomolgus monkey brain pons after 175 mins postinjection
- Format: ADME, organism-based, Macaca fascicularis
- MEASUREMENT CONTEXT: in vivo
Assign Drug uptake to each entry below.
Answers are plain numbers.

Reference set (3 entries):
1) O=C(OCC[18F])C1C2CCC(CC1c1cccc(/C=C\I)c1)N2 (centres undefined): 2.36
2) O=C(OCCC[18F])C1C2CCC(CC1c1cccc(/C=C\Br)c1)N2 (centres undefined): 3.78
3) O=C(OCC[18F])C1C2CCC(CC1c1cccc(/C=C\Br)c1)N2 (centres undefined): 3.72

// next item, Drug uptake requested
Inquiry: State its Drug uptake on Pons: O=C(OCCC[18F])C1C2CCC(CC1c1cccc(/C=C\I)c1)N2 (centres undefined)
Reply text: 3.41

----------
- Test system: Putamen
- PROTOCOL DETAILS: Drug uptake in anesthetized cynomolgus monkey brain putamen after 105 mins postinjection
- Format: ADME, organism-based, Macaca fascicularis
- Parameters: unit not given here
- MEASUREMENT CONTEXT: in vivo, 1.75 h
RESULT TYPE: Drug uptake
Give bare numbers.

Use the examples below as a reference point.
1) O=C(OCC[18F])C1C2CCC(CC1c1cccc(/C=C\Br)c1)N2 (stereo not given): 4.82
2) O=C(OCCC[18F])C1C2CCC(CC1c1cccc(/C=C\Br)c1)N2 (stereo not given): 5.21
3) O=C(OCCC[18F])C1C2CCC(CC1c1cccc(/C=C\I)c1)N2 (stereo not given): 4.52
4) O=C(OCC[18F])C1C2CCC(CC1c1cccc(/C=C\I)c1)N2 (stereo not given): 3.88

Now turn to the next compound.
Inquiry: Give the measured Drug uptake of O=C(OCC[18F])C1C2CCC(CC1c1ccc(/C=C\I)cc1)N2 (stereo not given) .
Reply text: 4.34

----------
- Test system: Putamen
- PROTOCOL DETAILS: Drug uptake in anesthetized cynomolgus monkey brain putamen after 55 mins postinjection
- Assay type: ADME, organism-based, Macaca fascicularis
- Parameters: unit not given here
- MEASUREMENT CONTEXT: in vivo
Values of Drug uptake greater than or equal to 5 map to Condition met; values below map to Condition not met.

Inquiry: Does the compound O=C(OCC[18F])C1C2CCC(CC1c1ccc(/C=C\I)cc1)N2 (stereo not given) have recorded Drug uptake that is 5 or more?
Reply text: Condition not met

Inquiry: Is reported Drug uptake greater than or equal to 5 here: O=C(OCCC[18F])C1C2CCC(CC1c1cccc(/C=C\Br)c1)N2 (stereo not given)
Reply text: Condition met

Inquiry: Is Drug uptake at least 5? Consider O=C(OCC[18F])C1C2CCC(CC1c1cccc(/C=C\I)c1)N2 (stereo not given)
Reply text: Condition not met

----------
Exercise: state measured Drug uptake for each of the compounds provided.
- Tested on: Thalamus
- PROTOCOL DETAILS: Drug uptake in anesthetized cynomolgus monkey brain thalamus after 115 mins postinjection
- Format: ADME, organism-based, Macaca fascicularis
- Parameters: unit not given here
- MEASUREMENT CONTEXT: in vivo
Answers are plain numbers.

// known answers, use as guide
1. O=C(OCC[18F])C1C2CCC(CC1c1cccc(/C=C\I)c1)N2 (stereo not given): 3.58
2. O=C(OCC[18F])C1C2CCC(CC1c1ccc(/C=C\I)cc1)N2 (stereo not given): 4.06
3. O=C(OCCC[18F])C1C2CCC(CC1c1cccc(/C=C\I)c1)N2 (stereo not given): 4.24
4. O=C(OCC[18F])C1C2CCC(CC1c1cccc(/C=C\Br)c1)N2 (stereo not given): 4.22

Field: next compound
Inquiry: Form entry - test system: Thalamus; read-out: Drug uptake; compound: O=C(OCCC[18F])C1C2CCC(CC1c1cccc(/C=C\Br)c1)N2 (stereo not given)
Reply text: 4.82

----------
- PROTOCOL DETAILS: Protein binding in anesthetized cynomolgus monkey plasma after 120 mins postinjection
- Assay type: ADME, organism-based, Macaca fascicularis
- MEASUREMENT CONTEXT: read-out: PPB (converted)
RESULT TYPE: fraction unbound at 2 h
One number for each entry.

Inquiry: fraction unbound at 2 h for O=C(OCC[18F])C1C2CCC(CC1c1cccc(/C=C\I)c1)N2 (stereo unspecified) ?
Reply text: 0.934
